These compounds were tested on CYP3A4 (Homo sapiens); IC50 is the recorded read-out.
Sequence (P08684 whole entry): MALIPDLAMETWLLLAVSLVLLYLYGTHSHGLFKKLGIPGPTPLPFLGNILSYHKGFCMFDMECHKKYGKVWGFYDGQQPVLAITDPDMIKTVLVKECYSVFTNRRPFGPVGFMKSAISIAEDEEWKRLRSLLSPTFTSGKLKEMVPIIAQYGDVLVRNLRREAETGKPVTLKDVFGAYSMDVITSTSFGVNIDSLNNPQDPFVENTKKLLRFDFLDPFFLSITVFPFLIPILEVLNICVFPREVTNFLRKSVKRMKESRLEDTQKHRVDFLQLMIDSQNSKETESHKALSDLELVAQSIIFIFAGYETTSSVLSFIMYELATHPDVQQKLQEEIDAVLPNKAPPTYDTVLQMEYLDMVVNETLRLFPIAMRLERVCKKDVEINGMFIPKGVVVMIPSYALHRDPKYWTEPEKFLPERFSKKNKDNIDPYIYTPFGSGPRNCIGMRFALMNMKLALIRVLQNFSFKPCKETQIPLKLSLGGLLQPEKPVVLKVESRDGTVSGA
Number only, in µM; omit the unit.

Consider the worked cases shown below.
* Nc1nc2ccc([N+](=O)[O-])cc2s1 | 60.6
* COc1cc(Cl)ccc1Oc1ccc(Cl)cc1Cl | 70.2
* C[C@@H]1CN(CCCn2c3ccccc3c3ccccc32)C[C@H](C)N1.Cl.Cl [Rimcazole dihydrochloride] | 1.84
* Cc1ccc([N+](=O)[O-])[c]2c1[O][Hg]2 | 8.08
* C=CCOC(=O)c1ccc(C(=O)OCC=C)c(C(=O)OCC=C)c1 [Triallyl trimellitate] | 1.5
* c1cc[c]([Bi]([c]2ccccc2)[c]2ccccc2)cc1 | 2.36
* N=C(Nc1ccccc1)Nc1ccccc1 | 51.9

Bench note, CYP3A4 (Homo sapiens): COc1cc2c(cc1OC)C(C(C(=O)N(CCc1ccc(OC)c(OC)c1OC)CCc1ccc(OC)c(OC)c1OC)c1ccccc1)=NCC2.Cl (centres unmarked) [Pinokalant hydrochloride] , IC50 reads 0.57

###

These compounds were tested on human CYP1A2 (Homo sapiens); CYP1A2 Efficacy (in parenthesis) is the recorded read-out.
Sequence (P05177 whole entry): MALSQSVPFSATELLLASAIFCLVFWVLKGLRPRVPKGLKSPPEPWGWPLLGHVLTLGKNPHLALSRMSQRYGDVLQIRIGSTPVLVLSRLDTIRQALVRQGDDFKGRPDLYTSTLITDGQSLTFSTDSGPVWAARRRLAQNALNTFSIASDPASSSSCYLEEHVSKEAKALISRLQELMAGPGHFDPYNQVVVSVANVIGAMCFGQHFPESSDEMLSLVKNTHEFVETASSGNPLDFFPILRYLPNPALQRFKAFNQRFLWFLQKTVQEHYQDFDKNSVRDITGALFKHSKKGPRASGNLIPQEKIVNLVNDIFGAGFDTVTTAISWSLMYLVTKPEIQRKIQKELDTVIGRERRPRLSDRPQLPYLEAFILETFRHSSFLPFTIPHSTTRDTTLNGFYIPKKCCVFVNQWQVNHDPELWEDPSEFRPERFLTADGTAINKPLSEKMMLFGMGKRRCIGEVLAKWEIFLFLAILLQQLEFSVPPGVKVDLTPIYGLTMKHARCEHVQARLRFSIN

Consider the worked cases shown below.
- O=S(=O)(Oc1ccc(Cl)cc1)c1ccccc1 [Fenson]: 5.64 ± 0 (-100 ± 5) %
- CCCCCCCCCCCCCCCCn1cc[n+](C)c1.[Cl-] [1-Hexadecyl-3-methylimidazolium chloride]: 69.7 ± 29.29 (-90 ± 28) %

Please turn your attention to the following entry.
Bench note, human CYP1A2 (Homo sapiens): CC(=O)[O-].CC(=O)[O-].[Hg+2] [Mercury(II) acetate] , CYP1A2 Efficacy (in parenthesis) reads 4.19 ± 0.75 (-100 ± 9) %

###

- target.entity: CYP3A4 (Homo sapiens)
- assay.explanation: biochemical
- study.conditions: CYP3A4 IC50
Where a name gives a salt, the structure may show the parent alone.
pIC50 values, listed per item
pIC50 here: minus log base 10 of the concentration, concentration in moles per litre.

Consider the worked cases shown below.
* O=S1(=O)OCC2C(CO1)C1(Cl)C(Cl)=C(Cl)C2(Cl)C1(Cl)Cl (centres unmarked) [Endosulfan sulfate] | 6.66
* CCOP(=S)(OCC)Oc1cnc2ccccc2n1 [Quinalphos] | 5.34
* CCOP(=S)(Oc1cnc(C(C)(C)C)nc1)OC(C)C (centres unmarked) [Tebupirimfos] | 5.82
* CC1(C)C2(Cl)C(Cl)C(Cl)C(Cl)(C(Cl)Cl)C1(Cl)C2Cl (centres unmarked) [Strobane] | 6.09

Looking up O=S1OCC2C(CO1)C1(Cl)C(Cl)=C(Cl)C2(Cl)C1(Cl)Cl (centres unmarked) [Endosulfan] , I see its pIC50 listed as 6.41

Looking up CCOC(=O)N(C)C(=O)CSP(=S)(OCC)OCC [Mecarbam] , I see its pIC50 listed as 5.59

###

- target.entity: human CYP2D6 (Homo sapiens, UniProt P10635)
- Sequence (P10635 whole entry): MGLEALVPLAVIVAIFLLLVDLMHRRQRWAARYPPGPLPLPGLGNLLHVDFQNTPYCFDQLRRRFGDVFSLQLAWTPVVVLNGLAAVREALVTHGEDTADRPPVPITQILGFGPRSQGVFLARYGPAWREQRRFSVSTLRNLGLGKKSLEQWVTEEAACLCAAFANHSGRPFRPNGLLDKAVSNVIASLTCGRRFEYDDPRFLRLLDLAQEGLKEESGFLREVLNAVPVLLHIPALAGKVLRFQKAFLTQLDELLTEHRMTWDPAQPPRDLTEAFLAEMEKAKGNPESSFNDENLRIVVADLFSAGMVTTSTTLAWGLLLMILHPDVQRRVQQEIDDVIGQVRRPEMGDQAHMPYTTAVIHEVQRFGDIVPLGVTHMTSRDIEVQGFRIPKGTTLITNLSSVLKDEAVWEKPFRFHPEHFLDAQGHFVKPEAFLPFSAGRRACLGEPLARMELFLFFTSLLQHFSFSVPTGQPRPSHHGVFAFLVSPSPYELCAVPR
- assay.explanation: biochemical
Structures can show the parent of a compound that is named as a salt.
test.readout: IC50 (nM)
Number only, in nM; omit the unit.

Consider the worked cases shown below.
• CCOC(=O)COc1ccc2c(c1)C[C@@H](NC[C@H](O)c1cccc(Cl)c1)CC2 = 660
• CCCCC(CC)CN1C(=O)C2C3C=CC(C3)C2C1=O (centres unmarked) = 31400
• Clc1ccc(C(Cn2ccnc2)OCc2ccc(Sc3ccccc3)cc2)c(Cl)c1 (centres unmarked) [Fenticonazole nitrate] = 370
• COc1cc(N)c(Cl)cc1C(=O)NC1CCN(Cc2ccccc2)CC1 [Clebopride maleate] = 30

Looking up CCOP(=S)(OCC)SCn1nnc2ccccc2c1=O , I see its IC50 listed as 35600
